# Test system: MS2 coat protein
# RUN_DESCRIPTION: apparent Kd, MS2 coat protein; higher = weaker binding; RNA-MaP array
# COND: ligand present: flavin mononucleotide; designed as: ON switch for flavin mononucleotide
Outcome: TRUE for apparent Kd of at least 20 nM; FALSE for anything lower.

Worked cases, answers included:
RESIDUE_STRING: GCAUAUGCAUACAUGAGGAUCACCCAUGUGGAACUAAGGGCGAAGGAUAUGUGUUAAACUACGAGACAGAAGGUCGUGAGUAGA
GROUP_LABEL: FALSE
//
RESIDUE_STRING: GCACACAUGAGUUAGGAUAUAUGUUGUGAGACAUGAGGAUCACCCAUGUGUGCAUUGCUUAUAAUAUAGAAGGAACCCAGGUCGGC
GROUP_LABEL: FALSE
//
RESIDUE_STRING: CCUUCCUAGUGAGGAUAUCGGCUUGGACUCGAGCGAGAAGGCACCUAAUCGAAGAACUUUUAUCCACAUGAGGAUCACCCAUGU
GROUP_LABEL: FALSE
//
RESIDUE_STRING: AAGGGCGACGGACAGGAUAUAGUUAUUGUUACAUGAGGAUCACCCAUGUCUCCAGGUCUUUGACGCUAGAAGGGUCCCUCCUCGAC
GROUP_LABEL: TRUE
//
RESIDUE_STRING: CACUGACAACGAGGAUAUGGUCGAGCCAGACAUGAGGAUCACCCAUGUAUCGAAAGCAAUAAACUCCAGAAGGCGUAACAGUUG
GROUP_LABEL: FALSE

In: Given the entry UUGUCACAUGAGGAUCACCCAUGUAAGAGAUUCCAAGGAUAUAUUAUCGGGUAAAAUGAAAUAGAAGGUGGUCAGA , answer whether its apparent Kd meets or surpasses 20 nM.
Out: TRUE

In: Evaluate GAAUAAAAUAUAAUAAGAAAACAUGAGGAUCACCCAUGUACAAGAAGGGAGAAACUUAACAUAACUCAGGAUAUUGUUAUAUCA : apparent Kd at minimum 20 nM?
Out: TRUE

In: Hi, just wondering whether AAAUUAACGAAGAAGGCCUGACGACAUGACUACAUGAGGAUCACCCAUGUUGCAGCACAAUAUAAGGAGGAUAUUCGACAAGCU shows apparent Kd of 20 nM or higher.
Out: FALSE

In: Quick check, apparent Kd >= 20 nM? UUCUAUGUGACAGGAUAUAGACUCCACCAGUUUCUAGAAGGGUCACAGACGGAUCUUUAUUUGUCACAUGAGGAUCACCCAUGU
Out: FALSE
